Where do these numbers come from? They come from ChEMBL document CHEMBL3882241.

# TEST_TARGET: Serum amyloid P-component (Homo sapiens)
# PROTOCOL: Inhibition of calcium dependent [125I]serum amyloid P-component (unknown origin) binding to immobilized Neisseria meningitidis at 200 nM incubated for 2 hrs by fluorescence/electron microscopy relative to control
For each record, write down the corresponding inhibition.
Please state the figure in %; there is no need to write the unit.

# input Could you share what inhibition was measured for NCCOP(=O)(O)O , tested on Serum amyloid P-component (Homo sapiens)?
# output 7

# input Could you share what inhibition was measured for COc1cccc(OCC(=O)N2CCC[C@@H]2C(=O)O)c1OCC(=O)N1CCC[C@@H]1C(=O)O , tested on Serum amyloid P-component (Homo sapiens)?
# output 19

# input Could you share what inhibition was measured for O=C(O)[C@H]1CCCN1C(=O)COc1cccc2c(OCC(=O)N3CCC[C@@H]3C(=O)O)cccc12 , tested on Serum amyloid P-component (Homo sapiens)?
# output 30

# input Could you share what inhibition was measured for O=C(O)[C@H]1CCCN1C(=O)Cc1cc(O)c(CC(=O)N2CCC[C@@H]2C(=O)O)cc1O , tested on Serum amyloid P-component (Homo sapiens)?
# output 1

# input Could you share what inhibition was measured for O=C(O)[C@H]1CCCN1C(=O)Cc1ccc(CC(=O)N2CCC[C@@H]2C(=O)O)cc1 , tested on Serum amyloid P-component (Homo sapiens)?
# output 7

# input Could you share what inhibition was measured for O=C(O)[C@H]1CCCN1C(=O)[C@H]1CC[C@@H](C(=O)N2CCC[C@@H]2C(=O)O)CC1 , tested on Serum amyloid P-component (Homo sapiens)?
# output 31

# input Could you share what inhibition was measured for O=C(O)[C@H]1CCCN1C(=O)Cc1ccc(CC(=O)N2CCC[C@@H]2C(=O)O)c2ccccc12 , tested on Serum amyloid P-component (Homo sapiens)?
# output 13

# input Could you share what inhibition was measured for O=C(O)[C@H]1CCCN1C(=O)CCCCC(=O)N1CCC[C@@H]1C(=O)O , tested on Serum amyloid P-component (Homo sapiens)?
# output 5

# input Could you share what inhibition was measured for O=C(O)[C@H]1CCCN1C(=O)Cc1cccc(CC(=O)N2CCC[C@@H]2C(=O)O)c1 , tested on Serum amyloid P-component (Homo sapiens)?
# output 28

# input Could you share what inhibition was measured for O=C(O)[C@H]1CCCN1C(=O)COc1ccccc1OCC(=O)N1CCC[C@@H]1C(=O)O , tested on Serum amyloid P-component (Homo sapiens)?
# output 18

# input Could you share what inhibition was measured for O=C(O)[C@H]1CCCN1C(=O)COc1ccc(OCC(=O)N2CCC[C@@H]2C(=O)O)cc1 , tested on Serum amyloid P-component (Homo sapiens)?
# output 0

# input Could you share what inhibition was measured for Cc1c(OCC(=O)N2CCC[C@@H]2C(=O)O)cccc1OCC(=O)N1CCC[C@@H]1C(=O)O , tested on Serum amyloid P-component (Homo sapiens)?
# output 1

# input Could you share what inhibition was measured for C[C@H](CS)C(=O)N1CCC[C@@H]1C(=O)O , tested on Serum amyloid P-component (Homo sapiens)?
# output 3

# input Could you share what inhibition was measured for C[N+](C)(C)CCOP(=O)([O-])O , tested on Serum amyloid P-component (Homo sapiens)?
# output 0
